Where do these numbers come from? They come from paper PMC7826789.

# Tested on: DRAK2
# Construct: gene STK17B
# condition-summary: Compound Concentration (nM):1000;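 also: KINOMEscan scanMAX binding as percent activity remaining versus control; lower means stronger binding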
Record form. Attribute: Percent Control. Fill in for each entry.
Numbers only, in %.

// below: answered compounds
NS(=O)(=O)c1ccc(N/N=C2\C(=O)Nc3ccc(-c4cnco4)cc32)cc1
36
COC(=O)Nc1nc2ccc(Oc3ccc(NC(=O)Nc4cc(C(F)(F)F)ccc4F)cc3)cc2s1.Cl [GW693917A]
99
COc1cccc(-n2ncc3c(N/N=C/c4ccncc4)ncnc32)c1 [GW784752X]
87
O=C1Nc2ccc(C(=O)c3ccco3)cc2C1=Cc1cc(Cl)c(O)c(Cl)c1 [GW406108X]
32
CC(C)COC(=O)c1ccc2c(c1)/C(=C/Nc1ccc(S(N)(=O)=O)cc1)C(=O)N2 [GW416981X]
5.5

Batch: Percent Control for all items listed.
1. Nc1ncnc2occ(-c3ccc(NC(=O)Nc4cc(C(F)(F)F)ccc4F)cc3)c12 [GW770249X]
2. COc1cc2ncn(-c3cc(O[C@H](C)c4ccccc4Cl)c(C(N)=O)s3)c2cc1OC [GSK237701A]
3. COc1ccc2[nH]c3c4[nH]c5ccc(OC)cc5c4c4c(c3c2c1)C(=O)NC4=O [GW296115X]

A.
1. 96
2. 89
3. 2.2

###

# Tested on: MEK4
# Construct: gene MAP2K4
# condition-summary: Compound Concentration (nM):1000
Record form. Attribute: Percent Control. Fill in for each entry.
One number for each entry, in %.

// below: answered compounds
O=C(Nc1n[nH]c2nc(-c3ccc(O)cc3)c(Br)cc12)C1CC1 [SB-725317]
100
C[C@@H](Oc1cc(-n2cnc3ccc(OC4CCN(C)CC4)cc32)sc1C(N)=O)c1ccccc1Cl [GSK579289A]
98

Batch: Percent Control for all items listed.
1. COc1ccccc1-c1cc(/C=C2\C(=O)Nc3ncc(Br)cc32)cc(Br)c1O [GW442130X]
2. COc1ccc2[nH]c3c4[nH]c5ccc(OC)cc5c4c4c(c3c2c1)C(=O)NC4=O [GW296115X]
3. COc1cc(C)c(N(C)C(=O)CN(C)C)cc1Nc1nc(Nc2cccc(F)c2C(N)=O)c2cc[nH]c2n1 [GSK2219385]
4. NS(=O)(=O)c1ccc(N/N=C2\C(=O)Nc3ccc(C(=O)NCc4ccncc4)cc32)cc1 [GW300657X]
5. Cl.O=C(O[C@H]1CN[C@H](C#Cc2cc3ncnc(Nc4ccc5c(cnn5Cc5ccccc5)c4)c3s2)C1)N1CCOCC1 [GSK200398A]

A.
1. 86
2. 91
3. 94
4. 87
5. 97

###

# Test system: LRRK2
# condition-summary: Compound Concentration (nM):1000
result-type: Percent Control (%)
Give bare numbers, in %.

// below: answered compounds
Cl.O=C(Nc1ccc(Oc2ccc3[nH]c(NC(=O)c4ccco4)nc3c2)cc1)Nc1cc(C(F)(F)F)ccc1F [GW683134A]
28
C/C(Nc1ccc(S(N)(=O)=O)cc1)=C1/C(=O)Nc2ccccc21 [GW335962X]
55
COc1cc2ncn(-c3cc(O[C@H](C)c4ccccc4Cl)c(C(N)=O)s3)c2cc1OC [GSK237701A]
70
COc1cc(/C=N/Nc2ncnc3[nH]ncc23)ccc1O [GW578748X]
54
Cc1cc(O)cc(C)c1/C=C/c1cncc(C(N)=O)c1 [GW435821X]
81

Batch: Percent Control for all items listed.
1. NS(=O)(=O)c1ccc(N/N=C2\C(=O)Nc3ccc(-c4cnco4)cc32)cc1
2. COc1ccc2[nH]c3c4[nH]c5ccc(OC)cc5c4c4c(c3c2c1)C(=O)NC4=O [GW296115X]
3. COc1cc2ncnc(Nc3ccc4c(cnn4Cc4ccccc4)c3)c2cc1OC.Cl [GW282449A]

A.
[44, 2.8, 100]

###

Record form. Attribute: Percent Control. Fill in for each entry.
# Tested on: CAMKK1
# condition-summary: Compound Concentration (nM):1000
Numbers only, in %.

Cl.c1ccc(Cc2nc3ccc(Nc4ncnc5ccccc45)cc3[nH]2)cc1 [GR269666A]
100

Batch: Percent Control for all items listed.
1. CC1=C(C(=O)Nc2ccc3[nH]ncc3c2)C(c2ccc(Cl)c(Cl)c2)CC(=O)N1 (stereo not drawn) [GSK299115A]
2. NS(=O)(=O)c1ccc(Nc2ncc(-c3ccccc3)o2)cc1 [GW572399X]

A.
95
100

###

# Test system: FER
# condition-summary: Compound Concentration (nM):1000
result-type: Percent Control (%)
One number for each entry, in %.

// below: answered molecules
Nc1ncnc2occ(-c3ccc(NC(=O)Nc4cc(C(F)(F)F)ccc4F)cc3)c12 [GW770249X]
87
COc1cc(N2CCN(C(C)C)CC2)ccc1Nc1nc(Nc2ccc(F)cc2C(=O)NC[C@@H](O)CO)c2cc[nH]c2n1 [GSK1392956A]
43
COc1ccc2cc(-c3c(-c4ccncc4)nc(-c4ccc(S(C)(=O)=O)cc4C)n3C)ccc2c1 [SB-633825]
77

Batch: Percent Control for all items listed.
1. Cc1cc(O)cc(C)c1/C=C/c1cncc(C(N)=O)c1 [GW435821X]
2. CN(C)CCNC(=O)Nc1ccc(N(C)c2ccnc(Nc3ccc(CS(C)(=O)=O)cc3)n2)cc1.Cl [GW830900A]
3. NS(=O)(=O)c1ccc(N/N=C2\C(=O)Nc3ccc(C(=O)NCCc4c[nH]cn4)cc32)cc1 [GW300660X]
4. Cl.O=S1CCN(Cc2ccc(-c3ccc4ncnc(Nc5ccc(OCc6ccccc6)c(F)c5)c4c3)o2)CC1 [GW576924A]
5. NS(=O)(=O)c1ccc(N/N=C2\C(=O)Nc3ccc(C(=O)NCc4ccncc4)cc32)cc1 [GW300657X]
6. CCS(=O)(=O)c1ccc(OC)c(Nc2ncc(-c3cccc(F)c3)o2)c1 [GW621970X]

A.
98
100
100
100
100
100

Batch: Percent Control for all items listed.
1. COc1ccc2c(-c3ccnc(Nc4cccc(OC(F)(F)F)c4)n3)cnn2n1 [GW810372X]
2. COc1cc2ncnc(Nc3ccc4c(cnn4Cc4ccccc4)c3)c2cc1OC.Cl [GW282449A]
3. O=C1Nc2ccc(C(=O)c3ccco3)cc2C1=Cc1cc(Cl)c(O)c(Cl)c1 [GW406108X]

A.
[100, 100, 100]

###

# Test system: CAMK1
# condition-summary: Compound Concentration (nM):1000
result-type: Percent Control (%)
Give bare numbers, in %.

COc1cc(C)c(N(C)C(=O)CN(C)C)cc1Nc1nc(Nc2cccc(F)c2C(N)=O)c2cc[nH]c2n1
97

Batch: Percent Control for all items listed.
1. COc1cc(C=NNc2ncnc3c2cnn3-c2ccccc2)ccc1O [GW513184X]
2. Cl.O=C(Nc1ccc(Oc2ccc3[nH]c(NC(=O)c4ccco4)nc3c2)cc1)Nc1cc(C(F)(F)F)ccc1F [GW683134A]

A.
100
59

Batch: Percent Control for all items listed.
1. COc1ccc2cc(-c3c(-c4ccncc4)nc(-c4ccc(S(C)(=O)=O)cc4C)n3C)ccc2c1
2. COc1cccc(-c2c[nH]c3c(N/N=C/c4ccncc4)ncnc23)c1 [GW814408X]
3. Cl.c1ccc(Cc2nc3ccc(Nc4ncnc5ccccc45)cc3[nH]2)cc1 [GR269666A]
4. COc1ccc(COc2ccc(Cc3cnc(N)nc3N)cc2OC)cc1 [GW632580X]
5. Cl.O=C(Nc1ccc(Oc2ccc3[nH]c(NC(=O)c4ccccc4)nc3c2)cc1)Nc1cc(C(F)(F)F)ccc1F [GW709042A]
6. Cl.O=C(O[C@H]1CN[C@H](C#Cc2cc3ncnc(Nc4ccc5c(cnn5Cc5ccccc5)c4)c3s2)C1)N1CCOCC1 [GSK200398A]
7. CN(C)CCNC(=O)Nc1ccc(N(C)c2ccnc(Nc3ccc(CS(C)(=O)=O)cc3)n2)cc1.Cl [GW830900A]
8. COC(=O)Nc1nc2ccc(Oc3ccc(NC(=O)Nc4cc(C(F)(F)F)ccc4F)cc3)cc2s1.Cl [GW693917A]

A.
[93, 100, 90, 100, 95, 100, 100, 88]

Batch: Percent Control for all items listed.
1. COc1ccc2[nH]c3c4[nH]c5ccc(OC)cc5c4c4c(c3c2c1)C(=O)NC4=O [GW296115X]
2. Cl.O=S1CCN(Cc2ccc(-c3ccc4ncnc(Nc5ccc(OCc6ccccc6)c(F)c5)c4c3)o2)CC1 [GW576924A]
3. NS(=O)(=O)c1ccc(N/N=C2\C(=O)Nc3ccc(C(=O)NCCc4c[nH]cn4)cc32)cc1 [GW300660X]

A.
80
100
100

Batch: Percent Control for all items listed.
1. O=C1Nc2ccc(C(=O)c3ccco3)cc2C1=Cc1cc(Cl)c(O)c(Cl)c1 [GW406108X]
2. CCS(=O)(=O)c1ccc(OC)c(Nc2ncc(-c3cccc(F)c3)o2)c1 [GW621970X]
3. CCS(=O)(=O)c1ccc(OC)c(Nc2ncc(-c3cccc(OC)c3)o2)c1 [GW580509X]
4. NS(=O)(=O)c1ccc(N/N=C2\C(=O)Nc3ccc(-c4cnco4)cc32)cc1

A.
1. 63
2. 100
3. 87
4. 74
